measurement description: Metabolic stability in human liver microsomes assessed as intrinsic clearance measured per mg protein for 60 mins in presence of NADPH
Type: ADME, Microsome
condition: read-out: CLH

{"columns": ["compound", "measurement units", "microsomal CLint"],
 "data": [
  ["O=C(CNc1ccccc1)NC(C(=O)NO)c1ccc(-c2cc(F)c(F)c(F)c2)cc1 (stereo unspecified)", "µL/min/mg", 16]
]}

###

measurement description: Kinetic solubility of the compound in phosphate buffer at pH 6.5 measured after 30 mins by nephelometric analysis
Format: physicochemical
condition: read-out: Kinetic_solubility
measurement label: solubility kinetic at 0.5 h (µg/mL)

{"columns": ["compound", "measurement label", "meas value"],
 "data": [
  ["CC(C)(C)CC(=O)NC(C(=O)NO)c1ccc(-c2cc(F)c(F)c(F)c2)cc1 (configuration not stated)", "solubility kinetic at 0.5 h", 12.5],
  ["O=C(CNc1ccccc1)NC(C(=O)NO)c1ccc(-c2cc(F)c(F)c(F)c2)cc1 (configuration not stated)", "solubility kinetic at 0.5 h", 1.6]
]}

###

measurement description: Metabolic stability in mouse liver microsomes assessed as intrinsic clearance measured per mg protein for 60 mins in presence of NADPH
Format: ADME, Microsome
condition: read-out: CLH
measurement label: microsomal CLint

{"columns": ["compound", "measurement label", "meas value"],
 "data": [
  ["O=C(CNc1ccccc1)NC(C(=O)NO)c1ccc(-c2cc(F)c(F)c(F)c2)cc1 (stereo unspecified)", "microsomal CLint", "17 µL/min/mg"]
]}

###

measurement description: Metabolic stability in mouse liver microsomes assessed as half life measured for 60 mins in presence of NADPH
Format: ADME, Microsome

{"columns": ["molecule", "measurement units", "half-life"],
 "data": [
  ["CC(C)(C)CC(=O)NC(C(=O)NO)c1ccc(-c2cc(F)c(F)c(F)c2)cc1 (configuration not stated)", "h", 1.5],
  ["O=C(CNc1ccccc1)NC(C(=O)NO)c1ccc(-c2cc(F)c(F)c(F)c2)cc1 (configuration not stated)", "h", 1.75]
]}

###

measurement description: Kinetic solubility of the compound in 0.01 M HCL at pH 2.0 measured after 30 mins by nephelometric analysis
Assay type: physicochemical
condition: read-out: Kinetic_solubility
Measured solubility kinetic at 0.5 h of individual entries

{"columns": ["compound", "solubility kinetic at 0.5 h"],
 "data": [
  ["O=C(CNc1ccccc1)NC(C(=O)NO)c1ccc(-c2cc(F)c(F)c(F)c2)cc1 (configuration not stated)", "3.1 µg/mL"],
  ["CC(C)(C)CC(=O)NC(C(=O)NO)c1ccc(-c2cc(F)c(F)c(F)c2)cc1 (configuration not stated)", "12.5 µg/mL"]
]}
